Measured protein stability index, listed per entry.
B1: KCNK9 (parent)
chain: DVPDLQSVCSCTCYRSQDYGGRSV

Variants of: B1
Protocol text: protein stability index of a GFP-peptide fusion (GPS, HEK-293T) (PSI 1-6); higher = more stable;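 also: lentivirally expressed fusions sorted by FACS into six bins by GFP to DsRed ratio, PSI derived from sequencing read proportions per bin multiplied by bin number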
Condition description: c terminus: a fixed tail appended

>>> df
   mutation_key  experimental_value
0           S7M                1.84
1           Q6S                1.59

Please find the next variant below.
QUERY: Entry under review: Q6K . Reported protein stability index?
RESULT: 1.98
